# Test system: rodent lifetime carcinogenesis bioassay, tumor incidence TD50
# method_description: carcinogenic potency in animals, long-term in vivo studies, CPDB compilation (AID 1745844)
# settings: rat; strain Sprague-Dawley Spartan; males; inhaled; site: lung; lesion: adenoma; dosed 26 weeks; study length 121 weeks
measurement_kind: TD50

Fill in the blank: the reported TD50 of ClCOCCl is ____. 0.196 mg/kg/day

====

# Test system: rodent lifetime carcinogenesis bioassay, tumor incidence TD50
# method_description: carcinogenic potency in animals, long-term in vivo studies, CPDB compilation (AID 1745844)
# settings: mouse; strain B6C3F1; females; i.p.; site: any site (literature study); lesion: several types; types named in the paper; dosed 52 weeks; study length 85 weeks
measurement_kind: TD50 (mg/kg/day)
Answers are plain numbers, in mg/kg/day.

Quick check: TD50 of CNNCc1ccc(C(=O)NC(C)C)cc1 ? 0.193

Data provenance is PubChem BioAssay AID1745844.
